Tested on: OR2A7
Sequence (as listed by the source): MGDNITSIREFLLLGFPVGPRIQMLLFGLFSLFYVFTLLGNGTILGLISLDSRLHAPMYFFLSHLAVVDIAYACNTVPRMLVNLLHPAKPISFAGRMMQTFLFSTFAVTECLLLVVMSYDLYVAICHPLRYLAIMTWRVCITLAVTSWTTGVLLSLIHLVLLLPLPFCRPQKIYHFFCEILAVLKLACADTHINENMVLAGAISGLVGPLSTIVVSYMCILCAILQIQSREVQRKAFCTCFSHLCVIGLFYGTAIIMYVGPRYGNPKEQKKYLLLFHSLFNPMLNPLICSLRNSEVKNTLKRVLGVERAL
particulars: stereoisomer not certain
readout: odorant receptor agonist call

molecule	reportedMeasurement
CCC1OC(=O)C(O)=C1C (stereo unspecified)	inactive
CCCCCCC=CCCC=O	inactive
CC1=C(O)C(=O)OC1C (stereo unspecified)	inactive
CC1=NC(C)C(C)S1 (stereo unspecified)	inactive

stdin: Determine its reported odorant receptor agonist call: CCC1OC(C)=C(O)C1=O (stereo unspecified)
stdout: inactive

stdin: Determine its reported odorant receptor agonist call: CC1=C(O)C(=O)C(C)O1 (stereo unspecified)
stdout: inactive

###

system: UniProt Q8VGY6
Sequence (Q8VGY6 as listed by the source): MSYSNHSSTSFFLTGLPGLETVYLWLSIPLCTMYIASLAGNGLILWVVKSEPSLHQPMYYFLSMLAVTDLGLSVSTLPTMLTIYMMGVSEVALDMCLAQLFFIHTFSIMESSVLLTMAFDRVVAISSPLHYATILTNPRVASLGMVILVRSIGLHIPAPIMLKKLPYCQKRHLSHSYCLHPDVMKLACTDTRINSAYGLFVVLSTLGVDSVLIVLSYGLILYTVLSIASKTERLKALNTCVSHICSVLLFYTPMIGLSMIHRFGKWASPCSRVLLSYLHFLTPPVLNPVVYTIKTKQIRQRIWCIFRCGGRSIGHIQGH
particulars: stereoisomer not certain
readout: odorant receptor agonist call

Here's what some known entries look like.
compound	odorant receptor agonist call
CCCCC(=O)CC	inactive
CCCCC(C)=O	inactive
CCCCCCCO	inactive
CCCCCCC(=O)[O-].[H+]	inactive
CCC(=O)C(=O)CC	inactive
CC12CCC(CC1=O)C2(C)C (stereo not drawn)	inactive

stdin: Determine its reported odorant receptor agonist call: C=C(C)C1CCC(C)C(=O)C1 (stereo not drawn)
stdout: inactive

stdin: Determine its reported odorant receptor agonist call: CCCCCCCCCO
stdout: inactive

stdin: Determine its reported odorant receptor agonist call: CCCCCCCCS
stdout: inactive

stdin: Determine its reported odorant receptor agonist call: CCCCCCCCC(=O)O
stdout: inactive

stdin: Determine its reported odorant receptor agonist call: CC(=O)OCc1ccccc1
stdout: inactive

stdin: Determine its reported odorant receptor agonist call: c1ccccc1
stdout: inactive

stdin: Determine its reported odorant receptor agonist call: CC(=O)OCC=C(C)C
stdout: inactive

stdin: Determine its reported odorant receptor agonist call: CC(C)=CCCC(C)=CCO
stdout: inactive

stdin: Determine its reported odorant receptor agonist call: CCCCCCCCCC(=O)[O-].[H+]
stdout: inactive

stdin: Determine its reported odorant receptor agonist call: CCCCCCO
stdout: inactive

stdin: Determine its reported odorant receptor agonist call: CCCCCCCCCCO
stdout: inactive

stdin: Determine its reported odorant receptor agonist call: O=c1ccc2ccccc2o1
stdout: inactive
